Please go through the items and note down their CC50 at 24 h.
# method: MTT cytotoxicity assay
# Format: cell-based
# test.parameters: human, HepG2 cells, HepG2, MTT, read-out: CC50 (in viability curve)
Hi! Could you send only the number? It should be in mM, unit omitted.

-- ask CC50 at 24 h for O=C(Cc1csc2ccccc12)NC(c1ccccc1O)P(=O)(O)O (stereo not shown) ?
-- reply 3.9

-- ask CC50 at 24 h for O=C(NC(c1ccccc1O)P(=O)(O)O)c1csc2ccccc12 (stereo not shown) ?
-- reply 4.4

-- ask CC50 at 24 h for O=C(NC(c1ccccc1O)P(=O)(O)O)c1csc2c1CCCC2 (stereo not shown) ?
-- reply 4.8

-- ask CC50 at 24 h for O=C(Cc1cc2ccccc2s1)NC(c1ccccc1O)P(=O)(O)O (stereo not shown) ?
-- reply 5.6

-- ask CC50 at 24 h for O=C(NC(c1ccccc1O)P(=O)(O)O)c1scc2c1CCCC2 (stereo not shown) ?
-- reply 1.4

-- ask CC50 at 24 h for O=C(NC(c1ccccc1O)P(=O)(O)O)c1cc2ccccc2s1 (stereo not shown) ?
-- reply 2.9

-- ask CC50 at 24 h for O=C(NC(c1ccccc1O)P(=O)(O)O)c1ccsc1 (stereo not shown) ?
-- reply 1.8

-- ask CC50 at 24 h for O=C(Cc1cccs1)NC(c1ccccc1O)P(=O)(O)O (stereo not shown) ?
-- reply 1.5

-- ask CC50 at 24 h for O=C(Cc1ccsc1)NC(c1ccccc1O)P(=O)(O)O (stereo not shown) ?
-- reply 4

-- ask CC50 at 24 h for O=C(NC(c1ccccc1O)P(=O)(O)O)c1cccs1 (stereo not shown) ?
-- reply 4.5

----------
# system.under.test: VIM-2 (Escherichia coli, UniProt Q5U7L7)
# method: Enzymatic metallo-β-lactamase assay on purified VIM-2
# Type: biochemical
# test.parameters: approximated from Dixon plots (1/v vs [I]) at one constant substrate concentration; ± SE; read-out: Estimated inhibition constant Ki VIM-2
readout: Ki
Put down the number, then write its unit next to it.

-- ask Write down the reported Ki of O=C(NC(c1ccccc1O)P(=O)(O)O)c1csc2ccccc12 (stereo not shown) [5d] , test system: VIM-2 (Escherichia coli, UniProt Q5U7L7).
-- reply 31 µM

-- ask Write down the reported Ki of O=C(NC(c1ccccc1O)P(=O)(O)O)c1ccccc1 (stereo not shown) [5h] , test system: VIM-2 (Escherichia coli, UniProt Q5U7L7).
-- reply 85 µM

-- ask Write down the reported Ki of O=C(Cc1ccccc1)NC(c1ccccc1O)P(=O)(O)O (stereo not shown) [5m] , test system: VIM-2 (Escherichia coli, UniProt Q5U7L7).
-- reply 74 µM

-- ask Write down the reported Ki of O=C(NC(c1ccccc1O)P(=O)(O)O)c1csc2c1CCCC2 (stereo not shown) [5f] , test system: VIM-2 (Escherichia coli, UniProt Q5U7L7).
-- reply 40 µM

-- ask Write down the reported Ki of O=C(NC(c1ccccc1O)P(=O)(O)O)c1cccs1 (stereo not shown) [5a] , test system: VIM-2 (Escherichia coli, UniProt Q5U7L7).
-- reply 36 µM

-- ask Write down the reported Ki of O=C(NC(c1ccccc1O)P(=O)(O)O)c1cc2c(s1)CCCC2 (stereo not shown) [5e] , test system: VIM-2 (Escherichia coli, UniProt Q5U7L7).
-- reply 72 µM

-- ask Write down the reported Ki of O=C(Cc1ccsc1)NC(c1ccccc1O)P(=O)(O)O (stereo not shown) [5j] , test system: VIM-2 (Escherichia coli, UniProt Q5U7L7).
-- reply 88 µM

-- ask Write down the reported Ki of O=C(Cc1csc2ccccc12)NC(c1ccccc1O)P(=O)(O)O (stereo not shown) [5l] , test system: VIM-2 (Escherichia coli, UniProt Q5U7L7).
-- reply 39 µM

-- ask Write down the reported Ki of O=C(NC(c1ccccc1O)P(=O)(O)O)c1scc2c1CCCC2 (stereo not shown) [5g] , test system: VIM-2 (Escherichia coli, UniProt Q5U7L7).
-- reply 43 µM

-- ask Write down the reported Ki of O=C(NC(c1ccccc1O)P(=O)(O)O)c1cc2ccccc2s1 (stereo not shown) [5c] , test system: VIM-2 (Escherichia coli, UniProt Q5U7L7).
-- reply 71 µM

-- ask Write down the reported Ki of O=C(NC(c1ccccc1O)P(=O)(O)O)c1ccsc1 (stereo not shown) [5b] , test system: VIM-2 (Escherichia coli, UniProt Q5U7L7).
-- reply 112 µM

-- ask Write down the reported Ki of O=C(Cc1cccs1)NC(c1ccccc1O)P(=O)(O)O (stereo not shown) [5i] , test system: VIM-2 (Escherichia coli, UniProt Q5U7L7).
-- reply 76 µM

-- ask Write down the reported Ki of O=C(Cc1cc2ccccc2s1)NC(c1ccccc1O)P(=O)(O)O (stereo not shown) [5k] , test system: VIM-2 (Escherichia coli, UniProt Q5U7L7).
-- reply 119 µM

----------
Please go through the items and note down their main peak Area% right after dissolving in buffer.
# method: Long term stability in buffer with 2.5% DMSO (LC-MS)
# Format: physicochemical
# test.parameters: 20 mM KPO4, 0.1 mM ZnCl2, pH 7.0 + 2.5% DMSO; LC-MS 254 nm

-- ask main peak Area% right after dissolving in buffer for O=C(Cc1ccccc1)NC(c1ccccc1O)P(=O)(O)O (stereo not drawn) [5m] ?
-- reply 96.96%

-- ask main peak Area% right after dissolving in buffer for O=C(NC(c1ccccc1O)P(=O)(O)O)c1csc2c1CCCC2 (stereo not drawn) [5f] ?
-- reply 95.67%

-- ask main peak Area% right after dissolving in buffer for O=C(Cc1ccsc1)NC(c1ccccc1O)P(=O)(O)O (stereo not drawn) [5j] ?
-- reply 95.28%

-- ask main peak Area% right after dissolving in buffer for O=C(NC(c1ccccc1O)P(=O)(O)O)c1cc2c(s1)CCCC2 (stereo not drawn) [5e] ?
-- reply 98.53%

-- ask main peak Area% right after dissolving in buffer for O=C(NC(c1ccccc1O)P(=O)(O)O)c1csc2ccccc12 (stereo not drawn) [5d] ?
-- reply 97.92%

-- ask main peak Area% right after dissolving in buffer for O=C(NC(c1ccccc1O)P(=O)(O)O)c1ccsc1 (stereo not drawn) [5b] ?
-- reply 95.46%

----------
# system.under.test: VIM-2 (Escherichia coli, UniProt Q5U7L7)
# method: Enzyme steady state kinetic studies (inhibitor 5g and VIM-2)
# Type: biochemical
# test.parameters: Ki, Michaelis-Menten fit and Lineweaver-Burk plot, nitrocefin, 30 °C
readout: pKi
As a rule, pKi stands for the negative log10 of the concentration, concentration in M.

-- ask pKi for O=C(NC(c1ccccc1O)P(=O)(O)O)c1scc2c1CCCC2 (stereo not shown) ?
-- reply 4.44

----------
# system.under.test: GIM-1 (Pseudomonas aeruginosa, UniProt Q704V1)
# Sequence (Q704V1 entry or part of it): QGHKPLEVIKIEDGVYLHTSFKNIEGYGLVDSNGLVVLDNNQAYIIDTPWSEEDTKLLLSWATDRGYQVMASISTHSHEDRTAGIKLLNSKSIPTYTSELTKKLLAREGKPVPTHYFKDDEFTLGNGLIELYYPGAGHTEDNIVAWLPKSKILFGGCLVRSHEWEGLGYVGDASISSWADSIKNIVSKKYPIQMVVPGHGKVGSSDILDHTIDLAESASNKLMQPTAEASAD
# method: Enzymatic metallo-β-lactamase assay on purified GIM-1
# test.parameters: approximated from Dixon plots (1/v vs [I]) at one constant substrate concentration; ± SE; read-out: Estimated inhibition constant Ki GIM-1
pKi: −log10 of the molar value.
Lab note: anything with pKi at or over 4 counts as Y; the rest go in N.

-- ask Please indicate if the recorded pKi for O=C(Cc1ccccc1)NC(c1ccccc1O)P(=O)(O)O (centres unmarked) [5m] meets or exceeds 4.
-- reply N

-- ask Please indicate if the recorded pKi for O=C(Cc1cccs1)NC(c1ccccc1O)P(=O)(O)O (centres unmarked) [5i] meets or exceeds 4.
-- reply N

-- ask Please indicate if the recorded pKi for O=C(NC(c1ccccc1O)P(=O)(O)O)c1csc2ccccc12 (centres unmarked) [5d] meets or exceeds 4.
-- reply Y

-- ask Please indicate if the recorded pKi for O=C(NC(c1ccccc1O)P(=O)(O)O)c1cc2c(s1)CCCC2 (centres unmarked) [5e] meets or exceeds 4.
-- reply Y

-- ask Please indicate if the recorded pKi for O=C(Cc1csc2ccccc12)NC(c1ccccc1O)P(=O)(O)O (centres unmarked) [5l] meets or exceeds 4.
-- reply N

-- ask Please indicate if the recorded pKi for O=C(Cc1cc2ccccc2s1)NC(c1ccccc1O)P(=O)(O)O (centres unmarked) [5k] meets or exceeds 4.
-- reply N

-- ask Please indicate if the recorded pKi for O=C(NC(c1ccccc1O)P(=O)(O)O)c1ccsc1 (centres unmarked) [5b] meets or exceeds 4.
-- reply N

-- ask Please indicate if the recorded pKi for O=C(NC(c1ccccc1O)P(=O)(O)O)c1cccs1 (centres unmarked) [5a] meets or exceeds 4.
-- reply N

----------
# system.under.test: UniProtKB Q5U7L7
# method: Enzymatic metallo-β-lactamase assay on purified VIM-2
# Format: biochemical
# test.parameters: log of IC50; ± SEM of logIC50
readout: logIC50 VIM-2 (μM)
Hi! Could you send only the number? It should be in μM, unit omitted.

-- ask Write down the reported logIC50 VIM-2 of O=C(NC(c1ccccc1O)P(=O)(O)O)c1csc2c1CCCC2 (stereo not shown) , test system: UniProtKB Q5U7L7.
-- reply 1.68

-- ask Write down the reported logIC50 VIM-2 of O=C(NC(c1ccccc1O)P(=O)(O)O)c1ccccc1 (stereo not shown) , test system: UniProtKB Q5U7L7.
-- reply 1.74

-- ask Write down the reported logIC50 VIM-2 of O=C(NC(c1ccccc1O)P(=O)(O)O)c1cc2c(s1)CCCC2 (stereo not shown) , test system: UniProtKB Q5U7L7.
-- reply 1.90

-- ask Write down the reported logIC50 VIM-2 of O=C(Cc1cc2ccccc2s1)NC(c1ccccc1O)P(=O)(O)O (stereo not shown) , test system: UniProtKB Q5U7L7.
-- reply 1.71

-- ask Write down the reported logIC50 VIM-2 of O=C(NC(c1ccccc1O)P(=O)(O)O)c1cccs1 (stereo not shown) , test system: UniProtKB Q5U7L7.
-- reply 1.85

-- ask Write down the reported logIC50 VIM-2 of O=C(Cc1csc2ccccc12)NC(c1ccccc1O)P(=O)(O)O (stereo not shown) , test system: UniProtKB Q5U7L7.
-- reply 1.42

-- ask Write down the reported logIC50 VIM-2 of O=C(NC(c1ccccc1O)P(=O)(O)O)c1scc2c1CCCC2 (stereo not shown) , test system: UniProtKB Q5U7L7.
-- reply 1.06

-- ask Write down the reported logIC50 VIM-2 of O=C(NC(c1ccccc1O)P(=O)(O)O)c1csc2ccccc12 (stereo not shown) , test system: UniProtKB Q5U7L7.
-- reply 1.33

-- ask Write down the reported logIC50 VIM-2 of O=C(Cc1cccs1)NC(c1ccccc1O)P(=O)(O)O (stereo not shown) , test system: UniProtKB Q5U7L7.
-- reply 1.58

-- ask Write down the reported logIC50 VIM-2 of O=C(Cc1ccsc1)NC(c1ccccc1O)P(=O)(O)O (stereo not shown) , test system: UniProtKB Q5U7L7.
-- reply 1.57

-- ask Write down the reported logIC50 VIM-2 of O=C(NC(c1ccccc1O)P(=O)(O)O)c1ccsc1 (stereo not shown) , test system: UniProtKB Q5U7L7.
-- reply 2.10

-- ask Write down the reported logIC50 VIM-2 of O=C(Cc1ccccc1)NC(c1ccccc1O)P(=O)(O)O (stereo not shown) , test system: UniProtKB Q5U7L7.
-- reply 1.87

-- ask Write down the reported logIC50 VIM-2 of O=C(NC(c1ccccc1O)P(=O)(O)O)c1cc2ccccc2s1 (stereo not shown) , test system: UniProtKB Q5U7L7.
-- reply 2.01
